Origin of values: the supplement of paper PMC9170038

Below is a list of entries, each paired with its recorded apparent KD of MS2 coat protein value.
# System: MS2 coat protein
# test name: apparent KD of MS2 coat protein, switch OFF state (with FMN for OFF switches, without FMN for ON switches); designed switch direction (-1 OFF switch, 1 ON switch): -1; higher = weaker reporter binding
# study conditions: FMN input: 0 or 200 uM; Eterna round: R93 (includes R88 designs)
readout type: apparent KD of MS2 coat protein (nM)

>  <seq text>
AAAAAACAUGAGGAUCACCCAUGUGAGGAUAUCGGUAGUGAGGCCAUAGUGUCAGUAAUGAGAAGGCACAUAAA [Brourd 613 Mod 10 - Jieux - Exclusion 1]

>  <readout type>
apparent KD of MS2 coat protein

>  <observed measurement>
22.7

$$$$
>  <seq text>
AAAGAUGGAGGAUAUACAUGAGGAUCACCCAUGUAAAAAAAAAAGAGGGAAAAAGAAAGUAGAAGGCCACAAAA [Ex 3 May 44]

>  <readout type>
apparent KD of MS2 coat protein

>  <observed measurement>
46.4

$$$$
>  <seq text>
AGUUGGCGAGGAUAUACAUGAGGAUCACCCAUGUGAGAGAAAAAAGUGAGAAAGAAAAGUAGAAGGCGCUGACU [salish99-ex3-06]

>  <readout type>
apparent KD of MS2 coat protein

>  <observed measurement>
307

$$$$
